# credit: patent US20050209157A1

Experiment: Synergy of Shiva-1 and lysozyme, percent viability;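 further: Lysozyme at ten times the molar concentration of the peptide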
Format: cell-based, Staphylococcus intermedius
Settings: S. intermedius 19930
No end group written: not given here.
readout: viability at 5 µM (%)

                                  substance            readout  quantityunit  recordednumber
0  MPKWKVFKKIEKVGRNIRNGIVKAGPAIAVLGEAKALG-NH2 (C-terminus assumed) [SB-37]  viability at 5 µM             %            36.1
1  MPRWRLFRRIDRVGKQIKQGILRAGPAIALVGDARAVG [Shiva-1]  viability at 5 µM             %            35.2
